Entries and their measured growth inhibition follow.
PROCEDURE_TEXT: NCI Yeast Anticancer Drug Screen. Data for the bub3 strain (AID 167)
CONDITION: S. cerevisiae bub3 mutant strain, at 5.0 µM (retest, dose inferred, filed as 0.5), active compounds read high
Compounds without any hit were thinned out: in the full panel of roughly 79,000, 15% have a hit.
MEASURED_QUANTITY: growth inhibition (%)

>>> df
                                    compound  measured_quantity  endpoint_result
 0              Cc1cccc2nc3nc(Cl)c(Cl)nc3n12  growth inhibition                8
 1  COC(=O)C1C(=O)CC(c2ccccc2)C1c1ccccc1 (stereo not drawn)  growth inhibition                7
 2                CCc1ccc2ccc3ccc(CC)nc3c2n1  growth inhibition               95
 3  O=[N+]([O-])c1ccccc1C(c1ccc2ccccc2c1O)N1CCOCC1 (stereo not drawn)  growth inhibition               99
 4  COc1ccccc1C1C(Cl)C(=O)N1n1cnc2ccccc2c1=O (stereo not drawn)  growth inhibition                9
 5   Cn1cnc([N+](=O)[O-])c1Sc1nnnn1-c1ccccc1  growth inhibition               42
 6  O=c1oc2c3ccc4ccccc4c3n(CCCN3CCCCC3)c2c2ccccc12  growth inhibition               -4
 7      Cc1ccc2[nH]c3c(c2c1)CCC/C3=N/N=C(N)N  growth inhibition               21
 8  CN(C)C1C[C@@H](O[Si](C)(C)C(C)(C)C)C=C1S(=O)(=O)c1ccccc1 (stereo partly drawn)  growth inhibition              -14
 9  O=C1c2c(Br)c(Br)c(Br)c(Br)c2C(=O)N1c1nccs1  growth inhibition               11
10  CCOC(=O)Nc1ccc(SCC2COC(Cn3ccnc3)(c3ccc(Cl)cc3Cl)O2)cc1 (stereo not drawn)  growth inhibition               91
11                CCCCCCCC/C(C=O)=C\c1ccccc1  growth inhibition              -11
12            S=C(NCCc1ccccn1)N/N=C/c1ccccn1  growth inhibition              -17
13       ClCc1ccc(OCc2ccccc2)c(OCc2ccccc2)c1  growth inhibition                6
14  O=[N+]([O-])c1ccc2c(c1)/C(=C/c1ccc(O)cc1)c1ccccc1-2  growth inhibition               -2
15  CC(=O)C1(O)C(Br)CC2C3CC=C4CC(O)CCC4(C)C3CCC21C (stereo not drawn)  growth inhibition               49
16  CCC(=O)NC1=CCC(C(C)(C)C)CC1 (stereo not drawn)  growth inhibition                9
17           COC(=O)/C=C1/OC(c2ccccc2)=CC1=O  growth inhibition                0
18  Nc1c(-c2ccc(C3=NCCN3)cc2)[nH]c2cc(C3=NCCN3)ccc12  growth inhibition               22
19  O=C1NC(c2ccccc2)(c2cccs2)C(=O)N1C1c2ccccc2Oc2ccccc21 (stereo not drawn)  growth inhibition               -5
20  CC(C)(C)C1=CC(N2CCCCC2)(C(C)(C)C)C=C(C(C)(C)C)C1=O  growth inhibition               -6
21    CCCCCCCCCCC(NC(C)=O)(C(=O)OCC)C(=O)OCC  growth inhibition                0
22  CCOC(=O)c1[nH]n(-c2ccccc2)c(=O)c1/C=N/C(=S)N=Nc1c(O)[nH]c2ccccc12  growth inhibition              -13
